Target: delta opioid receptor (Rattus norvegicus, UniProt P33533)
Construct: the forebrains were homogenized in Tris buffer in a Teflon®-glass homogenizer; from tissue; host or cells: forebrain of male Wistar rats, particulate (membrane) preparation
Sequence (P33533 whole entry): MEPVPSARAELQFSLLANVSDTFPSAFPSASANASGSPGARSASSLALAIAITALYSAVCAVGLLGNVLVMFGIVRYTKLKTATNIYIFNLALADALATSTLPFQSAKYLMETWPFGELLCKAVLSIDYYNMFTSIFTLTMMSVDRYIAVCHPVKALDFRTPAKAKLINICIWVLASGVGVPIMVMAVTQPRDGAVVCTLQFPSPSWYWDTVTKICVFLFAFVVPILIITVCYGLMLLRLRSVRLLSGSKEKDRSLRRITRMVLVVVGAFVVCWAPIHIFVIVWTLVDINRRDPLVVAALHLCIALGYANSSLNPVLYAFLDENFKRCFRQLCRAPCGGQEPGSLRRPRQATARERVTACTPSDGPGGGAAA
Test: Rat brain delta opioid receptor binding assay
Details: δ-binding (Naltrindole ligand) Ki, rat forebrain, [3H]naltrindole ligand
Give measured Ki for each item. Keep answers brief.
Form entry: value (nM) — number only.

Request: Any idea what Ki was measured for `COc1ccc(Oc2nc(-c3ccnc(SC)n3)ncc2NC[C@@H]2CCCN2)cc1` ?
Result: 10

Request: Any idea what Ki was measured for `COc1ccc(Oc2nc(-c3cncnc3)ncc2NC[C@@H]2C[C@H](F)CN2)cc1` ?
Result: 10

Request: Any idea what Ki was measured for `COc1ccc(-c2ncc(NC[C@@H]3CCCN3)c(Oc3ccc(F)cc3)n2)cn1` ?
Result: 10

====

Biological target: delta opioid receptor (Mus musculus)
Construct: NG108-15 cell membranes were purchased from Applied Cell Sciences (Rockville, Md.); host or cells: NG108-15 cell membranes
Assay: [35S]GTPγS binding assay in NG108-15 cell membranes (delta opioid functional assay), 200 nM screen
Type: biochemical
Conditions: relative efficacy from dose response; NG108-15 cell membranes
In plain terms, low GTPγS δ-opioid receptor Rel Efficacy, meaning strictly below 1, gives true, and everything else gives false.

Request: Please indicate whether the reported GTPγS δ-opioid receptor Rel Efficacy of `COc1ccc(Oc2nc(-c3cncc(C)c3)ncc2N2CC[C@@H](N)C2)cc1` is strictly below 1.
Result: true

Request: Please indicate whether the reported GTPγS δ-opioid receptor Rel Efficacy of `COc1ccc(Oc2nc(-c3cncc(OC)c3)ncc2N[C@@H]2CCCNC2)cc1` is strictly below 1.
Result: false

Request: Please indicate whether the reported GTPγS δ-opioid receptor Rel Efficacy of `COc1ccc(Oc2nc(-c3cccnc3)ncc2N2CCN[C@@H](C)C2)cc1` is strictly below 1.
Result: false

Request: Please indicate whether the reported GTPγS δ-opioid receptor Rel Efficacy of `COc1ccc(Oc2nc(-c3cncc(C#N)c3)ncc2N2CC[C@@H](N)C2)cc1` is strictly below 1.
Result: false

Request: Please indicate whether the reported GTPγS δ-opioid receptor Rel Efficacy of `COc1ccc(Oc2nc(-c3cncc(C#N)c3)ncc2NCc2[nH]cnc2C)cc1` is strictly below 1.
Result: true

====

Target: delta opioid receptor (Mus musculus, UniProt P32300)
Construct: NG108-15 cell membranes were purchased from Applied Cell Sciences (Rockville, Md.); host or cells: NG108-15 cell membranes
Sequence (P32300 whole entry): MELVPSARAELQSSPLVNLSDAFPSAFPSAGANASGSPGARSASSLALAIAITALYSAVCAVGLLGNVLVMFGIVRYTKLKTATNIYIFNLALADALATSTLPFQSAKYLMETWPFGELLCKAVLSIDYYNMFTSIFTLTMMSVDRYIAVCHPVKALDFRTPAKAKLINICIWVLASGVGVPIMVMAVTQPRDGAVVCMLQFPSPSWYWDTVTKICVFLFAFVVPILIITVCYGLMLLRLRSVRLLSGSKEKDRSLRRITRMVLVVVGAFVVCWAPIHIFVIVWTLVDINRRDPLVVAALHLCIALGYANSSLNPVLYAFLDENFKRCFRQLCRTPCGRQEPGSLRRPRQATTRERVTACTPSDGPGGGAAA
Test: [35S]GTPγS binding assay in NG108-15 cell membranes (delta opioid functional assay), 200 nM screen
Assay type: biochemical
Details: relative efficacy from dose response; NG108-15 cell membranes
READOUT_NAME: GTPγS δ-opioid receptor Rel Efficacy

Request: Any idea what GTPγS δ-opioid receptor Rel Efficacy was measured for `COc1ccc(Oc2nc(-c3cncc(OC)c3)ncc2N2CC[C@@H](N)C2)cc1` ?
Result: 0.929

Request: Any idea what GTPγS δ-opioid receptor Rel Efficacy was measured for COc1ccc(Oc2nc(-c3cncc(C#N)c3)ncc2N2CCNC(C)C2)cc1 (racemic) ?
Result: 1.105

Request: Any idea what GTPγS δ-opioid receptor Rel Efficacy was measured for `CCOc1ccc(Oc2nc(-c3cncc(F)c3)ncc2NC[C@@H]2CCCN2)cc1` ?
Result: 1.019

Request: Any idea what GTPγS δ-opioid receptor Rel Efficacy was measured for `COc1ccc(Oc2nc(-c3ccc4c(c3)OCO4)ncc2NC[C@@H]2CCCN2)cc1` ?
Result: 1.115

Request: Any idea what GTPγS δ-opioid receptor Rel Efficacy was measured for `COc1ccc(Oc2nc(-c3cccnc3)ncc2N[C@@H]2CCNC2)cc1` ?
Result: 1.104

Request: Any idea what GTPγS δ-opioid receptor Rel Efficacy was measured for `COc1ccc(Oc2nc(-c3cc(F)cc(C#N)c3)ncc2NC[C@@H]2CCCN2)cc1` ?
Result: 1.006

====

Target: delta opioid receptor (Rattus norvegicus, UniProt P33533)
Construct: the forebrains were homogenized in Tris buffer in a Teflon®-glass homogenizer; from tissue; host or cells: forebrain of male Wistar rats, particulate (membrane) preparation
Experiment: Rat brain delta opioid receptor binding assay
Details: rat forebrain, [3H]naltrindole ligand; read-out: δ-binding (Naltrindole ligand) Ki
Give measured Ki for each item. Keep answers brief.
Hi, when you answer, please include the unit after the number. Thanks!

Request: Any idea what Ki was measured for CCCCOc1ccc(Oc2nc(-c3cncc(F)c3)ncc2NC[C@@H]2CCCN2)cc1 [Cpd 127] ?
Result: 224 nM

Request: Any idea what Ki was measured for COc1ccc(Oc2nc(-c3cnc(N4CCN(C)CC4)nc3)ncc2NC[C@@H]2CCCN2)cc1 [Cpd 84] ?
Result: 16 nM

Request: Any idea what Ki was measured for COc1ccc(Oc2nc(-c3ccc4cc[nH]c4c3)ncc2NC[C@@H]2CCCN2)cc1 [Cpd 118] ?
Result: 155 nM

Request: Any idea what Ki was measured for COc1ccc(Oc2nc(-c3ccc4sc5ccccc5c4c3)ncc2NC[C@@H]2CCCN2)cc1 [Cpd 21] ?
Result: 201 nM

Request: Any idea what Ki was measured for Fc1cncc(-c2ncc(NC[C@@H]3CCCN3)c(Oc3ccc(OC(F)F)cc3)n2)c1 [Cpd 112] ?
Result: 6 nM

Request: Any idea what Ki was measured for COc1ccc(Oc2nc(-c3cccc4ccccc34)ncc2NC[C@@H]2CCCN2)cc1 [Cpd 5] ?
Result: 157 nM

Request: Any idea what Ki was measured for Fc1cncc(-c2ncc(NC[C@@H]3CCCN3)c(Oc3ccc(OCC(F)(F)F)cc3)n2)c1 [Cpd 124] ?
Result: 126 nM

Request: Any idea what Ki was measured for COc1ccc(Oc2nc(-c3cncc(C#N)c3)ncc2NCC2COCCN2)cc1 (racemic) [Cpd 279] ?
Result: 5 nM

====

Target: delta opioid receptor (Mus musculus, UniProt P32300)
Construct: NG108-15 cell membranes were purchased from Applied Cell Sciences (Rockville, Md.); host or cells: NG108-15 cell membranes
Experiment: [35S]GTPγS binding assay in NG108-15 cell membranes (delta opioid functional assay), 200 nM screen
Format: biochemical
Conditions: 200 nM test compound; relative to calculated max of SNC80 dose response curve; NG108-15 cell membranes; averages if tested more than once
Give measured GTPγS δ-RelEfficacy @200 nM for each item. Keep answers brief.
Form: value (number only, do not type unit).

Request: Requested read-out GTPγS δ-RelEfficacy @200 nM, target or system delta opioid receptor (Mus musculus, UniProt P32300), entry O=C(c1cccc(Oc2nc(-c3cccnc3)ncc2NC[C@@H]2CCCN2)c1)N1CCOCC1 [Cpd 168]
Result: 0.300

Request: Requested read-out GTPγS δ-RelEfficacy @200 nM, target or system delta opioid receptor (Mus musculus, UniProt P32300), entry N#Cc1cncc(-c2ncc(NC[C@@H]3CCCN3)c(Oc3ccc(CF)cc3)n2)c1 [Cpd 206]
Result: 0.292

Request: Requested read-out GTPγS δ-RelEfficacy @200 nM, target or system delta opioid receptor (Mus musculus, UniProt P32300), entry COc1ccc(Oc2nc(-c3cncc(C#N)c3)ncc2NCc2cncn2C)cc1 [Cpd 286]
Result: 0.1

Request: Requested read-out GTPγS δ-RelEfficacy @200 nM, target or system delta opioid receptor (Mus musculus, UniProt P32300), entry Cc1cccc(Oc2nc(-c3cccnc3)ncc2NC[C@@H]2CCCN2)c1 [Cpd 203]
Result: 0.096

Request: Requested read-out GTPγS δ-RelEfficacy @200 nM, target or system delta opioid receptor (Mus musculus, UniProt P32300), entry Nc1ccc(Oc2nc(-c3cncc(F)c3)ncc2NC[C@@H]2CCCN2)cc1 [Cpd 198]
Result: 0.513

Request: Requested read-out GTPγS δ-RelEfficacy @200 nM, target or system delta opioid receptor (Mus musculus, UniProt P32300), entry COc1ccc(Oc2nc(-c3cncnc3)ncc2NC[C@@H]2CCCN2)cc1F [Cpd 133]
Result: 0.755

Request: Requested read-out GTPγS δ-RelEfficacy @200 nM, target or system delta opioid receptor (Mus musculus, UniProt P32300), entry COc1cncc(-c2ncc(NC[C@@H]3CCCN3)c(Oc3ccccc3Cl)n2)c1 [Cpd 232]
Result: 0.679

Request: Requested read-out GTPγS δ-RelEfficacy @200 nM, target or system delta opioid receptor (Mus musculus, UniProt P32300), entry COc1ccc(Oc2nc(-c3cncc(SC)c3)ncc2NCc2cnc[nH]2)cc1 [Cpd 289]
Result: 0.402

Request: Requested read-out GTPγS δ-RelEfficacy @200 nM, target or system delta opioid receptor (Mus musculus, UniProt P32300), entry CS(=O)(=O)c1ccc(Oc2nc(-c3cncc(F)c3)ncc2NC[C@@H]2CCCN2)cc1 [Cpd 222]
Result: 0.284

Request: Requested read-out GTPγS δ-RelEfficacy @200 nM, target or system delta opioid receptor (Mus musculus, UniProt P32300), entry COc1ccc(Oc2nc(-c3cc(F)cc(C#N)c3)ncc2NC[C@@H]2CCCN2)cc1 [Cpd 142]
Result: 0.931

Request: Requested read-out GTPγS δ-RelEfficacy @200 nM, target or system delta opioid receptor (Mus musculus, UniProt P32300), entry COc1ccc(Oc2nc(-c3cccnc3)ncc2NCc2cnc[nH]2)cc1 [Cpd 288]
Result: 0.428

Request: Requested read-out GTPγS δ-RelEfficacy @200 nM, target or system delta opioid receptor (Mus musculus, UniProt P32300), entry COc1ccc(Oc2nc(-c3cncc(C#N)c3)ncc2NCc2ncc[nH]2)cc1 [Cpd 284]
Result: 0.600

Request: Requested read-out GTPγS δ-RelEfficacy @200 nM, target or system delta opioid receptor (Mus musculus, UniProt P32300), entry c1cncc(Cc2ccc(Oc3nc(-c4cccnc4)ncc3NC[C@@H]3CCCN3)cc2)c1 [Cpd 209]
Result: 0.002

Request: Requested read-out GTPγS δ-RelEfficacy @200 nM, target or system delta opioid receptor (Mus musculus, UniProt P32300), entry N#Cc1cncc(-c2ncc(NC[C@@H]3CCCN3)c(Oc3cccc(O)c3)n2)c1 [Cpd 231]
Result: 1.159

Request: Requested read-out GTPγS δ-RelEfficacy @200 nM, target or system delta opioid receptor (Mus musculus, UniProt P32300), entry Clc1cncc(-c2ncc(NC[C@@H]3CCCN3)c(Oc3ccccc3Cl)n2)c1 [Cpd 229]
Result: 0.715

Request: Requested read-out GTPγS δ-RelEfficacy @200 nM, target or system delta opioid receptor (Mus musculus, UniProt P32300), entry COc1ccc(Oc2nc(-c3cncc(C#N)c3)ncc2N2CCC[C@H](N)C2)cc1 [Cpd 329]
Result: 0.475

Request: Requested read-out GTPγS δ-RelEfficacy @200 nM, target or system delta opioid receptor (Mus musculus, UniProt P32300), entry COc1ccc(Oc2nc(-c3cccnc3)ncc2NC2CNC2)cc1 [Cpd 226]
Result: 0.320

Request: Requested read-out GTPγS δ-RelEfficacy @200 nM, target or system delta opioid receptor (Mus musculus, UniProt P32300), entry CSc1cncc(-c2ncc(NC[C@@H]3CCCN3)c(Oc3cccc(OC(C)=O)c3)n2)c1 [Cpd 248]
Result: 0.754

Request: Requested read-out GTPγS δ-RelEfficacy @200 nM, target or system delta opioid receptor (Mus musculus, UniProt P32300), entry COc1ccc(Oc2nc(-c3cncc(C#N)c3)ncc2N2CCNC(=O)C2)cc1 [Cpd 335]
Result: 0.050

Request: Requested read-out GTPγS δ-RelEfficacy @200 nM, target or system delta opioid receptor (Mus musculus, UniProt P32300), entry CCN(CC)C(=O)c1ccc(Oc2nc(-c3cccnc3)ncc2NC[C@@H]2CCCN2)cc1 [Cpd 175]
Result: 0.005

Request: Requested read-out GTPγS δ-RelEfficacy @200 nM, target or system delta opioid receptor (Mus musculus, UniProt P32300), entry Cc1ccc(Oc2nc(-c3cncc(Cl)c3)ncc2NC[C@@H]2CCCN2)cc1F [Cpd 186]
Result: 0.466

Request: Requested read-out GTPγS δ-RelEfficacy @200 nM, target or system delta opioid receptor (Mus musculus, UniProt P32300), entry OCc1ccc(Oc2nc(-c3cncnc3)ncc2NC[C@@H]2CCCN2)cc1 [Cpd 144]
Result: 0.191

Request: Requested read-out GTPγS δ-RelEfficacy @200 nM, target or system delta opioid receptor (Mus musculus, UniProt P32300), entry COc1ccc(Oc2nc(-c3cncnc3)ncc2NC2CC(N)C2)cc1 (centres unmarked) [Cpd 304]
Result: 0.228

Numbers sourced from patent US8513271B2.
